What glycan array binding signal (z-score) was measured for each of the following?
studyTarget: Gal(b1-4)GlcNAc(b1-3)Gal(b1-4)GlcNAc(b1-2)Man(a1-3)[Gal(b1-4)GlcNAc(b1-3)Gal(b1-4)GlcNAc(b1-2)Man(a1-6)]Man(b1-4)GlcNAc(b1-4)[Fuc(a1-6)]GlcNAc
procedureText: glycan array binding signal (z-score within array); higher = stronger binding
conditionNotes: glycan notation: IUPAC condensed, linker removed
Shown is part of a subset that was picked to be rich in the strongest signals.
One number for each entry.

Past entries and their recorded results:
DrGal9 (Danio rerio) (protein) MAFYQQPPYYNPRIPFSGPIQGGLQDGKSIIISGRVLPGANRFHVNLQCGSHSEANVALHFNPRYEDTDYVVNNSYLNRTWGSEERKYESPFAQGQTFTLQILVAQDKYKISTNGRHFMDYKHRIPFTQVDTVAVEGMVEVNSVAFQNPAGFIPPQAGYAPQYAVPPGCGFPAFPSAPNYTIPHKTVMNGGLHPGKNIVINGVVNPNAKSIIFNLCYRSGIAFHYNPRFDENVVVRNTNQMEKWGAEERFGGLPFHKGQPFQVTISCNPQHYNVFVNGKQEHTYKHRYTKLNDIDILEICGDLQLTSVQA	5.22
LecRKVI.2 (protein) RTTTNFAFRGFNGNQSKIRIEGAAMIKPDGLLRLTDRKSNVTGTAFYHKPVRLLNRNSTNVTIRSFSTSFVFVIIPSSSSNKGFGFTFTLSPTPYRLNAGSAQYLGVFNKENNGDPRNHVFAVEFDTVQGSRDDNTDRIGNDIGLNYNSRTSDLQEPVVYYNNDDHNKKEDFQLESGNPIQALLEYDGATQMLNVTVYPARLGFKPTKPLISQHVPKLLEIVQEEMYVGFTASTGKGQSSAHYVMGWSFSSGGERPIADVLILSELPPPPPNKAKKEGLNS	3.44
LCA (Lens culinaris), P02870 (protein) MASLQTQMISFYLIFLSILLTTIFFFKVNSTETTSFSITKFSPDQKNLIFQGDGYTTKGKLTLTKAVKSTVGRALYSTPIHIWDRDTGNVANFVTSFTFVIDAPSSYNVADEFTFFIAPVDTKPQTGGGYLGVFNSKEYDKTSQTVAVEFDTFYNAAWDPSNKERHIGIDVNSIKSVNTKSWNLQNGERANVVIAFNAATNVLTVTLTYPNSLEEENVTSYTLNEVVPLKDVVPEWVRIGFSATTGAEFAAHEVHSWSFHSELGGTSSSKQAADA	4.42

Proceed to the following item.
Value lookup for glycan array binding signal (z-score); key = SUN4 (Saccharomyces cerevisiae), P53616 (protein) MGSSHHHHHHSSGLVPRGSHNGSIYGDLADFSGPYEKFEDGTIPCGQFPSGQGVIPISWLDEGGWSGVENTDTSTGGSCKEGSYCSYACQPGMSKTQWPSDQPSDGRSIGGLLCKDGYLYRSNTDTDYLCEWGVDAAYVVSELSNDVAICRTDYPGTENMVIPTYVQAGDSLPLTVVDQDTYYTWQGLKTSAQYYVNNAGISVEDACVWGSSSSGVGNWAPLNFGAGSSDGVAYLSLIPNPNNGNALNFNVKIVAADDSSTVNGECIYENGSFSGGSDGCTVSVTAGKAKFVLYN 2
